Molecular target: human PAR4 (Homo sapiens, UniProt Q96RI0)
Sequence (Q96RI0 18-385): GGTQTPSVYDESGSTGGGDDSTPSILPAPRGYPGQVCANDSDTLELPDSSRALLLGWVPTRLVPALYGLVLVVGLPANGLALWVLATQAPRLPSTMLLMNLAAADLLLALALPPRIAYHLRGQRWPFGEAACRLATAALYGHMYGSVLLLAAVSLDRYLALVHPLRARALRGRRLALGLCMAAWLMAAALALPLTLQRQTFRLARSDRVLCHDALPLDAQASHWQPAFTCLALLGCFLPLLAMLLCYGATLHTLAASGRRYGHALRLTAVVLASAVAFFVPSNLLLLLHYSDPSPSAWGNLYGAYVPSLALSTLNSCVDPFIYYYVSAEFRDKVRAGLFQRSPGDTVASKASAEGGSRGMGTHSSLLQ
Test: PAR4 FLIPR assay: antagonism of agonist-peptide-induced calcium mobilization in PAR4-expressing HEK293 cells
Conditions: H-Ala-Phe(4-F)-[…]NH2-induced intracellular calcium mobilization, 11-point curves
pIC50: −log10 of the molar value.
The entries below come with measured pIC50 values attached.

COMPOUND	SYSTEM_NAME	pIC50
COc1cnc2c(-c3nc4c(C)cc(OCCNS(=O)(=O)c5ccc(F)cc5)cc4s3)cc(C(O)CO)cc2n1 (stereo not shown) [Example 236]	human PAR4 (Homo sapiens, UniProt Q96RI0)	6.85
COc1cnc2c(-c3nc4cc(F)c(OC[C@@H](C)OC(=O)Nc5cnc(O[C@H](C)CO)nc5)cc4s3)cc(C)cc2n1 [Example 553]	human PAR4 (Homo sapiens, UniProt Q96RI0)	8.92
CCOc1cnc2c(-c3nc4cc(F)c(O[C@@H](C)[C@@H](C)OC(=O)Nc5cnc(C)nc5)cc4s3)cc(C)cc2n1 [Example 389]	human PAR4 (Homo sapiens, UniProt Q96RI0)	9.40
COc1cc(C(O)C(C)(C)C)c2nc(-c3cc(C)cc4nc(OC)cnc34)sc2c1 (stereo not shown) [Example 637]	human PAR4 (Homo sapiens, UniProt Q96RI0)	8.68
COCc1cnc2c(-c3nc4c(C)c(C)c(OCCOC(=O)OC)cc4s3)cc(C)cc2n1 [Example 320]	human PAR4 (Homo sapiens, UniProt Q96RI0)	8.47
COc1cnc2c(-c3nc4c(Cl)c(F)c(OCCOC(=O)NCc5ccn(C)n5)cc4s3)cc(C)cc2n1 [Example 398]	human PAR4 (Homo sapiens, UniProt Q96RI0)	8.07
COc1cnc2c(-c3nc4cc(F)c(O[C@@H](C)[C@@H](C)OC(=O)Nc5cnc(N6CCOCC6)nc5)cc4s3)cc(C)cc2n1 [Example 608]	human PAR4 (Homo sapiens, UniProt Q96RI0)	9.30
